Read-out: Interferon-gamma inducible Protein 10 (IP10), CXCL10 (gene 3627)
Test Name: BSK_BE3C_IP10: BioMAP Diversity Plus: BE3C Assay for Interferon-gamma inducible Protein 10 (IP10) Biomarker Activity (AID 2283034)
Measurement Context: primary human bronchial epithelial cells; actives raise or lower the signal
Calls of active or inactive are those of the source. How the source made its calls: active means hit-call score of the fitted dose curve at least 0.9, where 1 is the maximum; inactive means score below 0.9.
Permitted responses: yes (1) (active), no (0) (inactive)

Compound	Class
O=P(Oc1ccccc1)(Oc1ccccc1)Oc1ccccc1	yes (1)
OCC1CO1 (stereo unspecified)	no (0)

With those in mind, consider the next compound.
Query block: I would be grateful if you could indicate the recorded call for "CC(C)(C)OOC(C)(C)C" .
Result block: no (0)

* * *

Read-out: Pselectin, SELP (gene 6403)
Test Name: BSK_4H_Pselectin: BioMAP Diversity Plus: 4H Assay for Pselectin Biomarker Activity (AID 2283026)
Measurement Context: primary human endothelial cells (HUVEC); actives raise or lower the signal
The source made the active and inactive calls. How the source made its calls: active means hit-call score of the fitted dose curve at least 0.9, where 1 is the maximum; inactive means score below 0.9.
Assay Metric: AC50

O=P(Oc1ccccc1)(Oc1ccccc1)Oc1ccccc1 33.2 µM (active)
O=C(O)C(F)(F)OC(F)(F)C(F)(F)OC(F)(F)C(=O)O inactive
CCOP(=S)(OCC)SCn1nnc2ccccc2c1=O inactive
CCOc1ccc(C(C)(C)COCc2cccc(Oc3ccccc3)c2)cc1 inactive

* * *

Read-out: Plasminogen activator inhibitor-1 (PAI1), SERPINE1 (gene 5054)
Test Name: BSK_MyoF_PAI1: BioMAP Diversity Plus: MyoF Assay for Plasminogen activator inhibitor-1 (PAI1) Biomarker Activity (AID 2284256)
Measurement Context: primary human lung fibroblasts
Calls of active or inactive are those of the source. The calls were made as follows: active = hit-call score of the fitted dose curve at least 0.9, where 1 is the maximum; inactive = score below 0.9.
Permitted responses: active, inactive

Molecule	Class
FC(F)(F)C(F)(C(F)(F)F)C(F)(F)C(F)(F)CC1CO1 (stereo unspecified)	inactive

Query block: I would be grateful if you could indicate the recorded call for "OCC(F)(F)OC(F)(F)C(F)(F)OC(F)(F)C(F)(F)OC(F)(F)CO" .
Result block: inactive

Query block: I would be grateful if you could indicate the recorded call for "CCOP(=S)(OCC)SCS(=O)(=O)CC" .
Result block: inactive

Query block: I would be grateful if you could indicate the recorded call for "NC(=O)C(F)(F)C(F)(F)F" .
Result block: inactive

Query block: I would be grateful if you could indicate the recorded call for "Cc1ccc2c(c1N)C(=O)c1ccccc1C2=O" .
Result block: inactive

Query block: I would be grateful if you could indicate the recorded call for CC(Cl)CN(C)C (stereo unspecified) .
Result block: active

* * *

Test Name: ATG_VDRE_CIS: Attagene CIS-FACTORIAL HepG2 Assay for human Vitamin D Receptor Element (VDRE) (AID 2282968)
Measurement Context: HepG2 VDRE cis-reporter transcription, actives raise or lower the signal
Calls of active or inactive are those of the source. The calls were made as follows: active = hit-call score of the fitted dose curve at least 0.9, where 1 is the maximum; inactive = score below 0.9.
Permitted responses: yes (active), no (inactive)

Before answering, review these 2 worked examples.
Nc1ccc(Sc2ccc(N)cc2)cc1 yes
CSC(C)(C)C=NO no

With those in mind, consider the next molecule.
Query block: I would be grateful if you could indicate the recorded call for "CC(C)(C)c1ccccc1OP(=O)(Oc1ccccc1)Oc1ccccc1" .
Result block: no

* * *

Test Name: BSK_SAg_SRB: Viability Assessment in the BioMAP Diversity Plus: SAg Assay (AID 2283096);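 further: cells read one day after compound addition; hits may be either gain or loss of signal compared with DMSO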
Measurement Context: primary human HUVEC with PBMC
Calls of active or inactive are those of the source. The calls were made as follows: active = hit-call score of the fitted dose curve at least 0.9, where 1 is the maximum; inactive = score below 0.9.
Permitted responses: active, inactive

Before answering, review these 3 worked examples.
Compound	Class
COC(=O)C(F)(F)C(F)(F)OC(F)(C(F)(F)F)C(F)(F)OC(F)=C(F)F (stereo unspecified)	inactive
O=[N+]([O-])c1ccc(Cl)c(Cl)c1	inactive
CCOP(=S)(Oc1ccc([N+](=O)[O-])cc1)c1ccccc1 (stereo unspecified)	inactive

Query block: I would be grateful if you could indicate the recorded call for "c1ccc2c(c1)Nc1ccccc1S2" .
Result block: inactive

Query block: I would be grateful if you could indicate the recorded call for "N#Cc1c(-c2ccc(Cl)cc2)[nH]c(C(F)(F)F)c1Br" .
Result block: active

Query block: I would be grateful if you could indicate the recorded call for "CCOc1ccc(C(C)(C)COCc2cccc(Oc3ccccc3)c2)cc1" .
Result block: inactive

Query block: I would be grateful if you could indicate the recorded call for "ClC(Cl)=C(c1ccc(Cl)cc1)c1ccccc1Cl" .
Result block: active

Query block: I would be grateful if you could indicate the recorded call for "Cc1ccc(N)cc1N" .
Result block: inactive

Query block: I would be grateful if you could indicate the recorded call for "c1ccc2c(c1)sc1ccccc12" .
Result block: inactive

Query block: I would be grateful if you could indicate the recorded call for "O=P(Oc1ccccc1)(Oc1ccccc1)Oc1ccccc1" .
Result block: active

Query block: I would be grateful if you could indicate the recorded call for "CCCCN(CCCC)SN(C)C(=O)Oc1cccc2c1OC(C)(C)C2" .
Result block: active

* * *

Test Target: CCAAT/enhancer-binding protein beta (Homo sapiens) (UniProt P17676)
Sequence (P17676 whole entry, looked up): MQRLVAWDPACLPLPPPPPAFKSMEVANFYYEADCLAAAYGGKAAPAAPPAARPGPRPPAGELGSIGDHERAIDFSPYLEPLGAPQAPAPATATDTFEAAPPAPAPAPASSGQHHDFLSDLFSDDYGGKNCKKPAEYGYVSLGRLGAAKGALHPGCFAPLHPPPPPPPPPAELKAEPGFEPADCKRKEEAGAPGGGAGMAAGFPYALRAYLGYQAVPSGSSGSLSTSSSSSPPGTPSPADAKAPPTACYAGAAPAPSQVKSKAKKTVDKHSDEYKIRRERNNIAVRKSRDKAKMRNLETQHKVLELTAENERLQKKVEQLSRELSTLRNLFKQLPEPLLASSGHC
Test Name: ATG_C_EBP_CIS: Attagene CIS-FACTORIAL HepG2 Assay for human CCAAT/Enhancer Binding Protein (C/EBP) beta (AID 2282927)
Measurement Context: HepG2 Attagene cis-factorial transcription factor reporter; actives raise or lower the signal
Calls of active or inactive are those of the source. How the source made its calls: active means hit-call score of the fitted dose curve at least 0.9, where 1 is the maximum; inactive means score below 0.9.
Permitted responses: active, inactive

Before answering, review these 4 worked examples.
Molecule	Class
CC(=O)CCc1ccc2c(c1)OCO2	inactive
Cc1ccc(N)cc1N	inactive
O=P1(N(CCCl)CCCl)NCCCO1 (configuration not stated)	inactive
C=CC(=O)OCC(CC)(COC(=O)C=C)COC(=O)C=C	inactive

Query block: I would be grateful if you could indicate the recorded call for "OCC(F)(F)OC(F)(F)C(F)(F)OC(F)(F)C(F)(F)OC(F)(F)CO" .
Result block: inactive

Query block: I would be grateful if you could indicate the recorded call for "N#Cc1c(-c2ccc(Cl)cc2)[nH]c(C(F)(F)F)c1Br" .
Result block: active

Query block: I would be grateful if you could indicate the recorded call for "FC(F)(F)c1ccc(Cl)cc1" .
Result block: inactive

Query block: I would be grateful if you could indicate the recorded call for "O=C(O)CF" .
Result block: inactive

Query block: I would be grateful if you could indicate the recorded call for "O=C(O)C(F)(F)C(F)(F)C(=O)O" .
Result block: inactive

* * *

Test Name: ACEA_ER_80hr: ACEA Biosciences xCELLigence Real-Time Cell Analysis on Estrogen Receptor Agonism for Proliferation (AID 2282667)
Measurement Context: T47D proliferation, impedance (xCELLigence), 80 h
Results filed as inconclusive are left out. Activity calls are given as the source filed them. How the source made its calls: active means hit-call score of the fitted dose curve at least 0.9, where 1 is the maximum; inconclusive means response in the unintended direction; inactive means score below 0.9.
Permitted responses: class 1 (active), class 0 (inactive)

Molecule	Class
CC(=O)c1ccc(-c2ccccc2)cc1	class 0
CCN(CC)C1CCCCC1	class 0
Nc1ccc(Sc2ccc(N)cc2)cc1	class 0
CCOP(=S)(OCC)SCSCC	class 1
ClC(Cl)c1ccccc1	class 0

Query block: I would be grateful if you could indicate the recorded call for "O=C(O)CF" .
Result block: class 0

Query block: I would be grateful if you could indicate the recorded call for "O=[N+]([O-])c1ccccc1" .
Result block: class 0

Query block: I would be grateful if you could indicate the recorded call for "N#Cc1cc([N+](=O)[O-])ccc1N" .
Result block: class 0

Query block: I would be grateful if you could indicate the recorded call for "Cc1ccc2c(c1N)C(=O)c1ccccc1C2=O" .
Result block: class 0

Query block: I would be grateful if you could indicate the recorded call for "CCCCN(CCCC)SN(C)C(=O)Oc1cccc2c1OC(C)(C)C2" .
Result block: class 0

* * *

Read-out: TIMP metallopeptidase inhibitor 1 (TIMP1), TIMP1 (gene 7076)
Test Name: BSK_hDFCGF_TIMP1: BioMAP Diversity Plus: hDFCGF Assay for TIMP metallopeptidase inhibitor 1 (TIMP1) Biomarker Activity (AID 2283062)
Measurement Context: primary human foreskin fibroblasts; actives raise or lower the signal
Activity calls are given as the source filed them. The calls were made as follows: active = hit-call score of the fitted dose curve at least 0.9, where 1 is the maximum; inactive = score below 0.9.
Assay Metric: AC50

Consider the reported AC50 for these compounds:
Compound	Assay Metric	Experimental Value
Cc1cccc(N)c1	AC50	inactive
OCC(F)(F)OC(F)(F)C(F)(F)OC(F)(F)CO	AC50	inactive
CCOP(=S)(NC(C)C)Oc1ccccc1C(=O)OC(C)C (stereo unspecified)	AC50	inactive
FC(F)(F)C(F)(C(F)(F)F)C(F)(F)C(F)(F)CC1CO1 (stereo unspecified)	AC50	inactive
NC(=O)C(F)(F)C(F)(F)F	AC50	inactive

Quick batch: AC50 for everything below.
1. CCCCC(CC)COC(=O)c1c(Br)c(Br)c(Br)c(Br)c1C(=O)OCC(CC)CCCC (stereo unspecified)
2. [N-]=[N+]=[N-]
3. COP(N)(=S)OC
4. CC(C)Nc1ccc(Nc2ccccc2)cc1

Result block:
inactive
inactive
inactive
6.56 µM (active)

Quick batch: AC50 for everything below.
1. CCN(CC)c1ccccc1
2. CCOP(=S)(OCC)SCSCC

Result block:
1: inactive; 2: inactive
